- assayComment: Apparent kinetic solubility in 2-butanol of different crystalline forms
- Assay type: physicochemical
- conditionDescription: dry 2-butanol, 25 °C, organic solvent or mixture, thermodynamic from solid
readoutKind: solubility kinetic (µg/mL)
Give bare numbers, in µg/mL.

# input compound: COP(=O)(c1cc(C)cc(/C=C/C#N)c1)c1c(C(N)=O)[nH]c2ccc(Cl)cc12 (stereo not shown) [Form IX] ; wanted: its solubility kinetic 160

====

- assayComment: Solubility in recrystallization solvents (Panel 1)
- Format: physicochemical
- conditionDescription: organic solvent or mixture, thermodynamic from solid; ethanol; saturation temp. 25 °C
readoutKind: solubility (µg/mL)
One number for each entry, in µg/mL.

# input molecule: CO[P@](=O)(c1cc(C)cc(/C=C/C#N)c1)c1c(C(N)=O)[nH]c2ccc(Cl)cc12 ; wanted: its solubility 3640

====

- assayComment: Solubility in recrystallization solvents (Panel 1)
- Type: physicochemical
- conditionDescription: organic solvent or mixture, thermodynamic from solid; nitromethane; saturation temp. 25 °C
readoutKind: solubility (µg/mL)
Answers are plain numbers, in µg/mL.

# input compound: CO[P@](=O)(c1cc(C)cc(/C=C/C#N)c1)c1c(C(N)=O)[nH]c2ccc(Cl)cc12 ; wanted: its solubility 5710

====

- assayComment: Solubility in recrystallization solvents (Panel 1)
- Type: physicochemical
- conditionDescription: organic solvent or mixture, thermodynamic from solid; 2-butanol; saturation temp. 25 °C
readoutKind: solubility

# input compound: CO[P@](=O)(c1cc(C)cc(/C=C/C#N)c1)c1c(C(N)=O)[nH]c2ccc(Cl)cc12 [compound of Formula I] ; wanted: its solubility < 2670 µg/mL

====

- assayComment: Solubility in recrystallization solvents (Panel 1)
- Assay type: physicochemical
- conditionDescription: organic solvent or mixture, thermodynamic from solid; 2-propanol; saturation temp. 25 °C
- Method: Milligram size quantities of each sample were placed into a vial. Solvent was added and the vials were vortexed for a few minutes, followed by visual observation for remaining solids. The solvent was incrementally added until the solids were dissolved, or a maximum volume of solvent was added and the experiment was terminated. Parallel to that, a suspension is made and filtered, the solids was examined by XRD to determine if a phase transformation occurs. […]
readoutKind: solubility

# input compound: CO[P@](=O)(c1cc(C)cc(/C=C/C#N)c1)c1c(C(N)=O)[nH]c2ccc(Cl)cc12 [compound of Formula I] ; wanted: its solubility < 2670 µg/mL
